# STUDY_TARGET: MAP1LC3A, Q9H492
# ASSAY_TEXT: median log2 fold change of GCK-ALFA target abundance (FLAG IP / Myc IP barcode read proportion) (log2 ratio); each designed protein is fused to an ALFA-tag nanobody in HEK293 cells to bring the named protein to FLAG-tagged glucokinase (GCK); Myc marks an untargeted standard; higher = target protein stabilised (more abundant)
# CONDITION_NOTES: target protein: 3xFLAG-MCP-GCK-ALFA reporter; HEK293 landing pad (RPLP)
Whole data set: some 2,300 sequences, median “median log2 fold change of GCK-ALFA target abundance (FLAG IP / Myc IP barcode read proportion)” near 0.095, cut for the lowest 2% near -0.47. What follows is part of a selection rich in the lowest values, with near analogues and random picks from the rest.
TEST_READOUT: median log2 fold change
Provide a numeric answer; units are not to be included.

[Q] Need median log2 fold change of LC3A_28_983 (protein) MDPREQVEELIKKAKEAAAKGEATVFTITVTSTATEEDIELITEGLKEIAEILKDVKGSAIIVDVESGVPEEYIDKIAETMEEIEKANPNVTTIIALDED , thanks.
[A] -0.2

[Q] Need median log2 fold change of LC3A_3_1385 (protein) MEEEMEKTLERLREAGHSEETIEAARKALEALIEKGYENSAKTFIELLDELIHLPDELLLELFEDVLELIETEDIDEETLTEKIKEIASVYKNESEIEEL , thanks.
[A] 0.082

src = the supplement of paper PMC12632987
